Could you please report measured pIC50 for the items listed next?
- Test target: ΔTM rat FAAH (Rattus norvegicus, UniProt P97612)
- Construct: Preparation of Transmembrane Domain-Deleted Rat FAAH (ΔTM rFAAH)
- Sequence (P97612 30-579 limits assumed): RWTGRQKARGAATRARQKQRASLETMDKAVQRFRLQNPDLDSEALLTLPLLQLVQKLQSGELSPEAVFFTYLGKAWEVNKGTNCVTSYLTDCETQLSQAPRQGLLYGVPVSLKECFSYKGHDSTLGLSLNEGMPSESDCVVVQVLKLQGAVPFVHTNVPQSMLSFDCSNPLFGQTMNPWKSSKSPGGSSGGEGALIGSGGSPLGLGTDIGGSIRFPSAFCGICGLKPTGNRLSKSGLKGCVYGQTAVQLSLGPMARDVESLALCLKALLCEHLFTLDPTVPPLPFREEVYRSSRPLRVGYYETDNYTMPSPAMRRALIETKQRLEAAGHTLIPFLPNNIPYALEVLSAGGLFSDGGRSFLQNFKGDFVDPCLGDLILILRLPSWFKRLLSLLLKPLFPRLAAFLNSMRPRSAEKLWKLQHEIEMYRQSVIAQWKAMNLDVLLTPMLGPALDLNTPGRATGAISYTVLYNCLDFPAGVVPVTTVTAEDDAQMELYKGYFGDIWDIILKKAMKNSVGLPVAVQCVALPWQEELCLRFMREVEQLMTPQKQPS
- Assay info: Fluorescent assay protocol for ΔTM rat FAAH (AAMCA substrate)
- Experimental setup: 15 min preincubation, read-out: IC50 rFAAH
pIC50: −log10 of the molar value.

Below are worked cases with known answers.
| Query smiles | pIC50 |
| --- | --- |
| O=C(N1C[C@@H]2C[C@H]1CN2Cc1cccc(-c2ccccc2)c1)n1cnc(-c2ccccc2)c1 | 7.00 to 8.00 |
| N#Cc1cccc(OC(=O)N2CCC(OC(c3ccccc3)c3ccccc3)CC2)c1 | < 6.00 |

Give pIC50 for each of the items listed below.
1. O=C(Nc1cccc(Oc2ccccc2)c1)N1CCN(Cc2ccc3ccccc3n2)CC1
2. COC(=O)c1cccc(OC(=O)N2CCC(=C(c3ccccc3)c3ccccc3)CC2)c1

-- reply
["< 6.00", "6.00 to 6.96"]

---

- Test target: Rat MAGL (rMAGL) (Rattus norvegicus, UniProt Q8R431)
- Construct: made in house; host or cells: E. coli
- Sequence (Q8R431 whole entry): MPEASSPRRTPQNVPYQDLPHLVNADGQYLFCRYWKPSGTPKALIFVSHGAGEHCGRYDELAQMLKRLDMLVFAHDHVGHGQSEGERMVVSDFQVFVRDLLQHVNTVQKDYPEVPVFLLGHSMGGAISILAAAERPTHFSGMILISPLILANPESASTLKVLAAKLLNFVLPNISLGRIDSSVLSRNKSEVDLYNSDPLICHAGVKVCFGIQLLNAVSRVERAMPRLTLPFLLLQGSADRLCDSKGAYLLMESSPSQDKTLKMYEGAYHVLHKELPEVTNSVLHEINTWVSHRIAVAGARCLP
- Assay info: Fluorescent assay protocol for rMAGL
- Assay type: biochemical
- Experimental setup: recombinant rat MAGL, procedure as for hMAGL; read-out: IC50 rMAGL
Could you please report measured IC50 for the items listed next?

| Molecule | Test target | IC50 |
| --- | --- | --- |
| CC1CN(c2ccccc2)CCN1C(=O)n1cnc(-c2ccccc2)c1 (centres unmarked) [Example 23] | Rat MAGL (rMAGL) (Rattus norvegicus, UniProt Q8R431) | > 1000 nM |
| CC1CN(C(=O)n2cnc(-c3ccccc3)c2)CCN1c1cccc(OCc2ccccc2)c1 (centres unmarked) [Example 26] | Rat MAGL (rMAGL) (Rattus norvegicus, UniProt Q8R431) | > 1000 nM |
| N#Cc1cccc(-c2cccc(NC(=O)N3CCC4(CC3)CC(=O)c3ccccc3O4)c2)c1 [Example 20] | Rat MAGL (rMAGL) (Rattus norvegicus, UniProt Q8R431) | > 1000 nM |
| N#Cc1cccc(-c2cccc(NC(=O)N3C[C@@H]4C[C@H]3CN4Cc3cccc(-c4ccccc4)c3)c2)c1 [Example 94] | Rat MAGL (rMAGL) (Rattus norvegicus, UniProt Q8R431) | > 1000 nM |
| O=C(N1CC(N2CCC(c3ccccc3)CC2)C1)n1cnc2ccccc21 [Example 83] | Rat MAGL (rMAGL) (Rattus norvegicus, UniProt Q8R431) | > 1000 nM |
| N#Cc1cccc(-c2cccc(NC(=O)N3CCN(Cc4ccc5ccccc5n4)CC3)c2)c1 [Example 13] | Rat MAGL (rMAGL) (Rattus norvegicus, UniProt Q8R431) | > 1000 nM |

Give IC50 for each of the items listed below.
1. O=C(Oc1cccc(C(F)(F)F)c1)N1CC(OCc2ccc(Cl)cc2)C1 [Example 75]
2. Cc1ccc(C#N)cc1OC(=O)N1CCC(S(=O)(=O)c2ccc(Br)cc2)CC1 [Example 61]
3. O=C(N1CC(OCc2ccc(Br)cc2)C1)n1cnc(-c2ccccc2)c1 [Example 86]
4. O=C(N1CC(OCc2ccc(Br)cc2)C1)n1cnc2ccccc21 [Example 87]
5. C[C@H]1CN(C(=O)Nc2cccc(-c3cccc(C#N)c3)c2)CCN1Cc1ccc2ccccc2n1 [Example 19]
6. N#Cc1cccc(-c2cccc(NC(=O)N3CCC(c4ccccc4)CC3)c2)c1 [Example 15]
7. O=C(Oc1cccc(Br)c1)N1CC(OCc2ccc(Cl)cc2)C1 [Example 76]
8. O=C(N1CCN(C(c2ccc(F)cc2)c2ccc(F)cc2)CC1)n1cnc(-c2ccccc2)c1 [Example 29]

-- reply
1. > 1000 nM
2. 10 to 100 nM
3. > 1000 nM
4. 10 to 100 nM
5. > 1000 nM
6. > 1000 nM
7. 110 to 1000 nM
8. > 1000 nM
